Cited source: ChEMBL document CHEMBL4138253

# targetOfAssay: Bile acid receptor (Homo sapiens)
# assaySummary: Agonist activity at FXR (unknown origin) measured after 16 hrs in presence of CCF4-AM dye by cell-based GeneBlazer FRET assay relative to CDCA
Kindly supply the reported Efficacy values for the records listed here.
Response body: numeric value in %, unit text excluded.

// lookup Efficacy for `CC[C@H]1[C@@H](O)[C@@H]2[C@H](CC[C@]3(C)[C@@H]([C@H](C)CCNC(=O)OCc4cccs4)CC[C@@H]23)[C@@]2(C)CC[C@@H](O)C[C@@H]12`
168

Could you tell me which Efficacy is on file for `CCOC(=O)NCC[C@@H](C)[C@H]1CC[C@H]2[C@@H]3[C@H](O)[C@H](CC)[C@@H]4C[C@H](O)CC[C@]4(C)[C@H]3CC[C@]12C` ?
174

Could you tell me which Efficacy is on file for `CC[C@H]1[C@@H](O)[C@@H]2[C@H](CC[C@]3(C)[C@@H]([C@H](C)CCNC(=O)O[C@@H]4CCOC4)CC[C@@H]23)[C@@]2(C)CC[C@@H](O)C[C@@H]12` ?
170

Look up Efficacy for this molecule: `CC[C@H]1[C@@H](O)[C@@H]2[C@H](CC[C@]3(C)[C@@H]([C@H](C)CCNC(=O)O[C@H]4CCOC4)CC[C@@H]23)[C@@]2(C)CC[C@@H](O)C[C@@H]12`
167

###

Would you kindly list Ratio EC50 for each of these compounds?
# Species on record: Homo sapiens
# assaySummary: Selectivity ratio of EC50 for recombinant human GST-tagged FXR LBD (193 to 472 residues) expressed in baculovirus-infected insect cells to EC50 for human TGR5 expressed in HEK293 cells
// return just the number, without any unit appended

So what does the record say about Ratio EC50 for `CC[C@H]1[C@@H](O)[C@@H]2[C@H](CC[C@]3(C)[C@@H]([C@H](C)CCC(=O)NS(C)(=O)=O)CC[C@@H]23)[C@@]2(C)CC[C@@H](O)C[C@@H]12` ?
14

For `CC[C@H]1[C@@H](O)[C@@H]2[C@H](CC[C@]3(C)[C@@H]([C@H](C)CCc4cc(O)no4)CC[C@@H]23)[C@@]2(C)CC[C@@H](O)C[C@@H]12` , what is its reported Ratio EC50?
17

Please report the recorded Ratio EC50 for `CC[C@H]1[C@@H](O)[C@@H]2[C@H](CC[C@]3(C)[C@@H]([C@H](C)CCNC(=O)N4CC[C@H](O)C4)CC[C@@H]23)[C@@]2(C)CC[C@@H](O)C[C@@H]12` .
2

Looking for the measured Ratio EC50 of `CC[C@H]1[C@@H](O)[C@@H]2[C@H](CC[C@]3(C)[C@@H]([C@H](C)CCNC(=O)O[C@H]4CCOC4)CC[C@@H]23)[C@@]2(C)CC[C@@H](O)C[C@@H]12` , can you help?
3

Report Ratio EC50 for `CCOC(=O)NCC[C@@H](C)[C@H]1CC[C@H]2[C@@H]3[C@H](O)[C@H](CC)[C@@H]4C[C@H](O)CC[C@]4(C)[C@H]3CC[C@]12C` please.
1

###

# assaySummary: Drug metabolism in C57BL/6 mouse plasma assessed as INT-747 level at 10 mg/kg, po administered as single dose via gavage measured at 3 hrs post dose by LC-MS/MS analysis
# Type: ADME, organism-based
# testSettings: in vivo
readoutKind: concentration (nM)
Response body: numeric value in nM, unit text excluded.

Reported concentration for `CC[C@H]1[C@@H](O)[C@@H]2[C@H](CC[C@]3(C)[C@@H]([C@H](C)CCC(=O)NS(C)(=O)=O)CC[C@@H]23)[C@@]2(C)CC[C@@H](O)C[C@@H]12` : what is it?
126
